assayReadout: melting point

compound	reading
CCCOc1ccc(S(=O)(=O)N2CCN(CCOC(=O)OCC)CC2)cc1-c1nc2c(CCC)cn(CC)c2c(=O)[nH]1 [Example 17]	135 to 136 °C
CCCOc1ccc(S(=O)(=O)N2CCN(CCOC(C)=O)CC2)cc1-c1nc2c(CCCF)cn(CC)c2c(=O)[nH]1 [Example 19]	134 to 135 °C
CCCOc1ccc(S(=O)(=O)N2CCN(CCOC(=O)CC)CC2)cc1-c1nc2c(CCC)cn(CC)c2c(=O)[nH]1 [Example 10]	126.5 to 127.5 °C

Let us examine a further case.
Field melting point (entry CCCOc1ccc(S(=O)(=O)N2CCN(CCOC(=O)c3ccccc3)CC2)cc1-c1nc2c(CCC)cn(CC)c2c(=O)[nH]1 [Example 16] ) reads 78 to 79 °C

###

assayReadout: melting point

Known melting point results, listed for orientation:
compound	melting point
CCCc1cn(C)c2c(=O)[nH]c(-c3cc(S(=O)(=O)N4CCN(CCCOC(C)=O)CC4)ccc3OCC)nc12 [Example 6]	157 to 158.5 °C
CCCOc1ccc(S(=O)(=O)N2CCN(CCOC(=O)CCC)CC2)cc1-c1nc2c(CCC)cn(CC)c2c(=O)[nH]1 [Example 12]	71.5 to 73 °C
CCCOc1ccc(S(=O)(=O)N2CCN(CCOC(C)=O)CC2)cc1-c1nc2c(CCC)cn(CC)c2c(=O)[nH]1 [Example 7]	139 to 140 °C

Let us examine a further case.
Field melting point (entry CCCOc1ccc(S(=O)(=O)N2CCN(CCOC(=O)C(C)C)CC2)cc1-c1nc2c(CCC)cn(CC)c2c(=O)[nH]1 [Example 14] ) reads 88 to 89 °C
